# Lookup of reported inhibition at 1 ppm keyed by entry
# System: pathogenic bacteria causing bacterial angular leaf spot in cucumbers
# Protocol Text: In vitro bactericidal activity, bacterial angular leaf spot in cucumbers
# Format: cell-based, pseudomonas
# Condition Description: dosage 1 ppm, read-out: inhibitory rate

Example results:
chemical_smiles=CSc1cc2c(cc1F)c(=O)c(C(=O)OCCO)cn2C1CC1 observed_result="≥ 90%"
chemical_smiles=COc1cc2c(cc1F)c(=O)c(C(=O)OCCCO)cn2C1CC1 observed_result="≥ 90%"
chemical_smiles=COCCOC(=O)c1cn(C2CC2)c2cc(OCC(F)(F)F)c(F)cc2c1=O observed_result="≥ 90%"
chemical_smiles=COCCOC(=O)c1cn(C2CC2)c2cc(OC3CCCC3)c(F)cc2c1=O observed_result="≥ 90%"
chemical_smiles=COCCOC(=O)c1cn(C2CC2)c2ccc(Cl)cc2c1=O observed_result="≥ 90%"
chemical_smiles=O=C(OCCO)c1cn(C2CC2)c2cc(N3CCOCC3)c(F)cc2c1=O observed_result="≥ 90%"

Now turn to the next compound.
// Input: COCCOC(=O)c1cn(C2CC2)c2cc(N(C)C)c(F)cc2c1=O . Output its inhibition at 1 ppm only.
≥ 90%
